These entries and their values trace back to the nanobody polyreactivity screen of Harvey et al. (2022).

Assay Summary: yeast display, Sf9 membrane polyspecificity reagent, FACS + sequencing; frameworks hold sequencing errors
Reported Endpoint: polyreactivity (PSR sort gate)

See these solved cases before continuing.
| Biosequence | Endpoint Result |
| --- | --- |
| QVQLEESGGGLVQAGGSLRIRCAASGSTFVGYAMGWYRQAPGKERELVAAITSSGGRTYYADSVKGRFTISRDNAKNTVYLQMNSLKPEDTAVYYCAAPRARIGGSYDYWGQGTQVTGSS | high polyreactivity |
| QVQLVESGGGLVQAGGSLRLSCAASGRTFPAYAMGWYRQAPGKERELVAAISRGGSTYYADSVKGRFTISRDNAKNTVYLQMNSLKPEDTAVYYCAARYSYYRQGDSWYNYNYWGQGTQVTVSS | high polyreactivity |
| QVQLVESGGGLVQAGRSLRLSCAASGYIFDTNAMGWYRQAPGKERELVAAITKSGGSTYYADSVKGRFTISRDNAKNTVYLHMNSLKPEDTAVYYCAARGTSKRWSLYDYWGQGTQVTVSS | low polyreactivity |
| QVQHVETGGGLVQAGGSLRLSCAASGFIFTRYVMGWSRQAPGKERELVAAISRIGASTYYADSVKGRFSISRDNAKNPVYLQMNSLKPEDTAVYYCNVVSGGYFEYEYCGQGTQVTVSS | high polyreactivity |
| QVQLVESGGGLVQAGGSLRLSCAASGGTFNSNAMGWYRQAPGKERELVASITWRGGTYYADSVKGRFTISRDNAKNTVYLQMNSLKPEDTAVYYCAARGTIPGIHWIYYYWGQGTQVTVSS | high polyreactivity |

Task item: Give polyreactivity (PSR sort gate) for QVQLVESGGGLVQAGGSLRLSCAASGSTFAANAMGWYRQAPGKERELVAAIDSSTGSTYYADSVKGRFTISRDIAKNNVFLQMNRLKPEDTAVYYCNKTSFLVKLDYWGQGTQVTVSS
Reply: low polyreactivity

Task item: Give polyreactivity (PSR sort gate) for QVQLVESGGGLVQAGGSLRLSCAASGRIFPYNAMGWYRQAPGKERELVAAISGRGGSTYYADSVKGRFTISRDNAKNTVYLQMNSLKPEDTAVYYCAKRYVYPGAKHRFRGYDYWGQGTQVTVSS
Reply: high polyreactivity

Task item: Give polyreactivity (PSR sort gate) for QVQLVESGGGLVQAGGSLRLSCAASGSTFVYYAMGWYRQAPGKERELVATINYNGGSTSYADSVKGRFTISRDNEKNTVYLQMNSLKPEDTAVYYCAKDRYYTWGDYWGQGTQVTVSS
Reply: low polyreactivity

###

Assay Summary: yeast display, Sf9 membrane polyspecificity reagent, FACS + sequencing; frameworks hold sequencing errors
Reported Endpoint: polyreactivity (PSR sort gate)

| Biosequence | Reported Endpoint | Endpoint Result |
| --- | --- | --- |
| QVQLLESGAGLVHAGGSLRISCAASGRTFGLNAMAWNPPAHGKETELVAAISSSGGSTYYADSVKGRFTISRDNPKNTVYLQMNSLTPEDTAVYYCAKVLNRYGTAYYYWGQGTQVTVSS | polyreactivity (PSR sort gate) | high polyreactivity |
| QVQLVESGGGLVQAGGSLRFSCAASGRTFYRNVMGWYRQAPGKERELVAVITSGGSTNYADSVKGRFTISRDNAQNTVYLQMNSLKPEDTAVYYCNTALSSRSNKMYYWGQGTQVTVSS | polyreactivity (PSR sort gate) | high polyreactivity |
| QVQLVESGGGIVQAGGSLRLSCAASGSTFWIYAMGWYRQAPGKERELVAAISWRGGRTYYADSVKGRFTISRDNAKNTVYLQMNSLKPQDTAVYYCNAQKRDGSMGYWGQGTQVTVSS | polyreactivity (PSR sort gate) | high polyreactivity |
| QVQLVESGGGLVQAGGSLRLSCAASGFIFRYYAMGWYRQAPGKERELDAAISGSGGSTYYADSVKGRFTISRDNAKNTVYLQMNSLKPEDTAVYYCAKSYGSHRKIRTSFGYWGQGTQVTVSS | polyreactivity (PSR sort gate) | high polyreactivity |
